assayed system: SARS-CoV-2 3CLpro (Severe acute respiratory syndrome coronavirus 2, UniProt P0DTD1)
assay method text: biochemical
Type: biochemical
Parameters: unit not given here
experimental setup: sheet LOPAC_screen_w_protease; primary screen with protease, 5 µM; replicate 2
reported metric: Replicate_2

Worked cases, answers included:
molecule: Cl.NCCNC(=O)c1ncsc1-c1cccc(F)c1 [Ro 41-1049 hydrochloride]
Replicate_2: -2.218

molecule: Cc1cc(NC(=O)Nc2ccc3c(ccn3C)c2)sn1
Replicate_2: 0.4638

molecule: CC(C)=CCC/C(C)=C/CC/C(C)=C/CSc1ccccc1C(=O)O
Replicate_2: -1.149

molecule: Nc1nc(SCc2ccc([N+](=O)[O-])cc2)c2ncn([C@@H]3O[C@H](CO)[C@@H](O)[C@H]3O)c2n1
Replicate_2: -0.8885

molecule: O=c1ccn([C@@H]2O[C@H](COP(=O)([O-])OP(=O)([O-])O)[C@@H](O)[C@H]2O)c(=O)[nH]1.[Na+].[Na+] [Uridine 5'-diphosphate sodium]
Replicate_2: 0.3722

molecule: Cc1ccc(/C(=C\CN2CCCC2)c2ccccn2)cc1.Cl [Triprolidine hydrochloride]
Replicate_2: -0.1311

molecule: Clc1ccc(C(c2ccccc2Cl)C(Cl)Cl)cc1 (centres unmarked)
Replicate_2: -1.2843

molecule: O.c1cnc2c(c1)ccc1cccnc12 [1,10-Phenanthroline monohydrate]
Replicate_2: 0.8127

Qu. Entry under review: `C[C@H]1C[C@H]2[C@@H]3CCC4=CC(=O)C=C[C@]4(C)[C@@]3(Cl)[C@@H](O)C[C@]2(C)[C@@]1(O)C(=O)CO` . Reported Replicate_2?
Ans. -0.04382

Qu. Entry under review: COc1ccc(CCNC[C@H](O)c2ccc(O)cc2)cc1OC [R(-)-Denopamine] . Reported Replicate_2?
Ans. -1.02

Qu. Entry under review: CC(=O)OC(C)C[N+](C)(C)C.[Cl-] (stereo not drawn) [Acetyl-beta-methylcholine chloride] . Reported Replicate_2?
Ans. -0.6541

====

assayed system: UniProt:P0DTD1
assay method text: biochemical
Type: biochemical
experimental setup: 4 h, LOPAC1280 primary screen with protease, 5 µM compound, replicate 2; read-out: Replicate_2 (LOPAC_screen_w_protease)
Counter-ions that a name gives are not always drawn.
Some compounds, each annotated with its measured inhibition at 5 µM.
Report as a plain number; the unit % is understood.

compound: Cc1nc2c([nH]1)c(=O)n(C)c(=O)n2Cc1ccco1 [Furafylline]
assayed system: UniProt:P0DTD1
reading: -0.41
//
compound: NC(=NCc1ccccc1)NC(=O)c1nc(Cl)c(N)nc1N [Benzamil hydrochloride]
assayed system: UniProt:P0DTD1
reading: 1.83
//
compound: CC(C[N+](C)(C)C)OC(N)=O (stereo not drawn) [Bethanechol chloride]
assayed system: UniProt:P0DTD1
reading: 2.25
//
compound: O=C(CCCN1CCC(O)(c2cccc(C(F)(F)F)c2)CC1)c1ccc(F)cc1 [Trifluperidol hydrochloride]
assayed system: UniProt:P0DTD1
reading: 3.06
//
compound: Cc1ccccc1/C=C/C1=NCCN1 [Metrazoline oxalate]
assayed system: UniProt:P0DTD1
reading: 0.879

Qu. Entry under review: c1ccc(C2CC2)c(OCC2=NCCN2)c1 [Cirazoline hydrochloride] . Reported inhibition at 5 µM?
Ans. 1

Qu. Entry under review: O=C(CCCN1CCC(O)(c2ccc(Cl)cc2)CC1)c1ccc(F)cc1 [Haloperidol] . Reported inhibition at 5 µM?
Ans. 0.623

Qu. Entry under review: CC[C@H](NC(=O)c1c(C)c(-c2ccccc2)nc2ccccc12)c1ccccc1 [SB 222200] . Reported inhibition at 5 µM?
Ans. 1.28

Qu. Entry under review: CO[C@@]1(NC(=O)CSCC#N)C(=O)N2C(C(=O)O)=C(CSc3nnnn3C)CS[C@@H]21 [Cefmetazole sodium] . Reported inhibition at 5 µM?
Ans. 2.27

Qu. Entry under review: Cn1c(=O)[nH]c2ncn(C)c2c1=O [1,7-Dimethylxanthine] . Reported inhibition at 5 µM?
Ans. 1.66

====

assayed system: SARS-CoV-2 3CLpro (Severe acute respiratory syndrome coronavirus 2, UniProt P0DTD1)
assay method text: biochemical
Assay type: biochemical
experimental setup: 4 h, sheet LOPAC_screen_w_protease; primary screen with protease, compound at 5 µM; mean of two replicates; read-out: mean
Counter-ions that a name gives are not always drawn.
Some compounds, each annotated with its measured inhibition at 5 µM.
Report as a plain number; the unit % is understood.

Worked cases, answers included:
compound: CCn1ccnc1CC1COc2ccccc2O1 (centres unmarked) [Imiloxan hydrochloride]
measure unit: %
inhibition at 5 µM: 3.1
--
compound: O=[N+]([O-])c1cccc2cn[nH]c12 [7-Nitroindazole]
measure unit: %
inhibition at 5 µM: 3.04
--
compound: C[N+]1(C)CCOC(O)(c2ccc(-c3ccc(C4(O)C[N+](C)(C)CCO4)cc3)cc2)C1 (centres unmarked) [Hemicholinium-3]
measure unit: %
inhibition at 5 µM: 2.72
--
compound: O=c1n(CCCN2CCN(c3cccc(Cl)c3)CC2)nc2ccccn12 [Trazodone hydrochloride]
measure unit: %
inhibition at 5 µM: 2.86

Please examine the following record next.
Qu. Entry under review: COc1cc(CNC(=O)CCCCCCC(C)C)ccc1O [Dihydrocapsaicin] . Reported inhibition at 5 µM?
Ans. 3.14

====

assayed system: SARS-CoV-2 3CLpro (Severe acute respiratory syndrome coronavirus 2, UniProt P0DTD1)
assay method text: biochemical
Type: biochemical
experimental setup: 4 h, sheet LOPAC_screen_w_protease; primary screen with protease, replicate 1; read-out: Replicate_1
Structures can show the parent of a compound that is named as a salt.
reported metric: inhibition at 5 µM
Please don't drop the unit; write it after the number.

Worked cases, answers included:
molecule: COc1ccc2[nH]cc(CCNC(C)=O)c2c1
inhibition at 5 µM: 3.18%
//
molecule: CC(CN(C)C)CN1c2ccccc2CCc2ccccc21 (centres unmarked) [Trimipramine maleate]
inhibition at 5 µM: 3.17%
//
molecule: Nc1nc2[nH]c(=O)cnc2c(=O)[nH]1
inhibition at 5 µM: 3.73%
//
molecule: NC(=O)OCC(COC(N)=O)c1ccccc1 [Felbamate]
inhibition at 5 µM: 3.62%

Please examine the following record next.
Qu. Test system SARS-CoV-2 3CLpro (Severe acute respiratory syndrome coronavirus 2, UniProt P0DTD1); read-out inhibition at 5 µM; what value for OCCN1CCN(CC/C=C2/c3ccccc3Sc3ccc(C(F)(F)F)cc32)CC1 [cis-(Z)-Flupenthixol dihydrochloride] ?
Ans. 2.7%

====

assayed system: SARS-CoV-2 3CLpro (Severe acute respiratory syndrome coronavirus 2)
assay method text: biochemical
Assay type: biochemical
experimental setup: 4 h, sheet LOPAC_screen_w_protease; LOPAC1280 primary screen at 5 µM, with protease; replicate 1; read-out: Replicate_1
Counter-ions that a name gives are not always drawn.
reported metric: inhibition at 5 µM (%)
Report as a plain number; the unit % is understood.

Worked cases, answers included:
molecule: CN1C(=O)CCS(=O)(=O)C1c1ccc(Cl)cc1 (stereo not shown) [Chlormezanone]
reading: 2.15
--
molecule: Oc1c2ccccc2c2c3c(cccc13)N=N2 [SP600125]
reading: 0.641
--
molecule: Cc1nc2ccccn2c(=O)c1CCN1CCC(C(=O)c2ccc(F)cc2)CC1 [Pirenperone]
reading: 0.852

Please examine the following record next.
Qu. Entry under review: CN(C)CCC=C1c2ccccc2CCc2ccccc21 [Amitriptyline hydrochloride] . Reported inhibition at 5 µM?
Ans. 0.391

====

assayed system: SARS-CoV-2 3CLpro (Severe acute respiratory syndrome coronavirus 2, UniProt P0DTD1)
assay method text: biochemical
Type: biochemical
Set-up: unit not given here
experimental setup: sheet LOPAC_screen_w_protease; LOPAC1280 primary screen at 5 µM, with protease; replicate 2
Some molecules, each annotated with its measured Replicate_2.
// print number alone

Worked cases, answers included:
molecule: CC(N)=NCc1cccc(CN)c1.Cl.Cl [1400W dihydrochloride]
reading: 0.4785
//
molecule: CCCCS(=N)(=O)CCC(N)C(=O)O (racemic) [DL-Buthionine-[S,R]-sulfoximine]
reading: 0.6029

Qu. Entry under review: CC(C)[C@H]1CN[C@H](C(=O)O)[C@H]1CC(=O)O [Dihydrokainic acid] . Reported Replicate_2?
Ans. -0.2284

Qu. Entry under review: C[C@H](Cc1ccccc1)Nc1ncnc2c1ncn2[C@@H]1O[C@H](CO)[C@@H](O)[C@H]1O [R(-)-N6-(2-Phenylisopropyl)adenosine] . Reported Replicate_2?
Ans. -1.171

Qu. Entry under review: CCCCCCCCCC(=O)NC(CN1CCOCC1)[C@H](O)c1ccccc1.Cl (mixture of isomers) . Reported Replicate_2?
Ans. -0.042

Qu. Entry under review: COc1ccccc1N1CCN(CCCNc2c(C)c(=O)n(C)c(=O)n2C)CC1 [Urapidil, 5-Methyl-] . Reported Replicate_2?
Ans. -1.455

Qu. Entry under review: O=C(O)CCC(=O)N1CCC[C@H]1C(=O)O [N-Succinyl-L-proline] . Reported Replicate_2?
Ans. -3.873

Qu. Entry under review: COC(=O)[C@H](NC(=O)c1cc(-c2ccccc2)nc2ccccc12)c1ccccc1 [SB 218795] . Reported Replicate_2?
Ans. -1.313

Qu. Entry under review: `Nc1ncnc2c1c(-c1ccc(Oc3ccccc3)cc1)cn2C1CCCC1` . Reported Replicate_2?
Ans. 0.9192

Qu. Entry under review: COC1=C(OC)C(=O)c2ccccc2C1=O [2,3-Dimethoxy-1,4-naphthoquinone] . Reported Replicate_2?
Ans. 1.554

Qu. Entry under review: Cn1c(=O)c2c(nc(C=Cc3cccc(Cl)c3)n2C)n(C)c1=O [8-(3-Chlorostyryl)caffeine] . Reported Replicate_2?
Ans. -0.5047

Qu. Entry under review: C[N+](C)(CCCCCC[N+](C)(C)CCCN1C(=O)c2cccc3cccc(c23)C1=O)CCCN1C(=O)c2cccc3cccc(c23)C1=O.[Br-].[Br-] [WB 64] . Reported Replicate_2?
Ans. 1.044

Qu. Entry under review: O=C(O)C1CCCNC1 (racemic) [(±)-Nipecotic acid] . Reported Replicate_2?
Ans. -0.114
